- Organism: Homo sapiens
- test: Selectivity ratio of IC50 for human full length PI3Kalpha catalytic subunit/p85alpha to IC50 for human full length PI3Kdelta catalytic subunit/p85alpha
readout_name: Ratio IC50

INSERT INTO assay_data (structure_string, cmp, value_observed) VALUES
  ('C[C@H](Nc1nc(N)nc(N)c1C#N)c1nc2ccccc2c(=O)n1-c1cc(F)cc(F)c1', '=', 530),
  ('C[C@H](Nc1ccnc(N)c1C#N)c1nc2cccc(Cl)c2c(=O)n1-c1ccccc1', '>', 340),
  ('C[C@H](Nc1ncnc(N)c1C(F)(F)F)c1nc2cccc(Cl)c2c(=O)n1-c1ccccc1', '=', 1200),
  ('C[C@H](Nc1nc(N)nc(N)c1C#N)c1nc2ccc(F)c(Cl)c2c(=O)n1-c1cc(F)cc(F)c1', '=', 780),
  ('C[C@H](Nc1nc(N)nc(N)c1C#N)c1nc2cccc(Cl)c2c(=O)n1-c1cccc(Cl)c1', '=', 530),
  ('C[C@H](Nc1nc(Cl)nc(N)c1C#N)c1nc2cccc(Cl)c2c(=O)n1-c1ccccc1', '=', 720),
  ('C[C@H](Nc1nc(N)nc(N)c1C#N)c1nc2cccc(Cl)c2c(=O)n1-c1cccc(C#N)c1', '=', 1700),
  ('C[C@H](Nc1ncnc(N)c1C#Cc1cccnn1)c1nc2cccc(Cl)c2c(=O)n1-c1ccccc1', '>', 42),
  ('C[C@H](Nc1nc(N)nc(N)c1C#N)c1nc2cccc(Cl)c2c(=O)n1-c1cccc(F)c1', '=', 3100),
  ('C[C@H](Nc1nc(N)nc(N)c1C#N)c1nc2cccc(Cl)c2c(=O)n1-c1ccc(F)cc1', '=', 64),
  ('C[C@H](Nc1nc(N)nc(Cl)c1C#N)c1nc2cccc(Cl)c2c(=O)n1-c1ccccc1', '=', 530),
  ('C[C@H](Nc1ncncc1C#N)c1nc2cccc(Cl)c2c(=O)n1-c1ccccc1', '=', 1200),
  ('C[C@H](Nc1ccncn1)c1nc2cccc(Cl)c2c(=O)n1-c1ccccc1', '>', 6),
  ('C[C@H](Nc1cc(N)ncn1)c1nc2cccc(Cl)c2c(=O)n1-c1ccccc1', '>', 100),
  ('C[C@H](Nc1ncnc(N)c1C#Cc1cn[nH]c1)c1nc2cccc(Cl)c2c(=O)n1-c1ccccc1', '=', 1500),
  ('C[C@H](Nc1nc(N)nc(N)c1C#N)c1nc2c(F)cccc2c(=O)n1-c1cc(F)cc(F)c1', '=', 810),
  ('C[C@H](Nc1nc(N)nc(N)c1C#N)c1nc2cccc(Cl)c2c(=O)n1-c1cccc(C(F)(F)F)c1', '=', 1100),
  ('C[C@H](Nc1nc(N)nc(N)c1C#N)c1nc2ccc(F)cc2c(=O)n1-c1cc(F)cc(F)c1', '=', 600),
  ('C[C@H](Nc1nc(N)nc(N)c1Cl)c1nc2cccc(Cl)c2c(=O)n1-c1ccccc1', '=', 2700),
  ('C[C@H](Nc1nc(N)ncc1C#N)c1nc2cccc(Cl)c2c(=O)n1-c1ccccc1', '=', 530),
  ('C[C@H](Nc1ncnc(N)c1C#N)c1nc2cccc(Cl)c2c(=O)n1-c1ccccc1', '=', 4600),
  ('C[C@H](Nc1nc(N)nc(N)c1C#N)c1nc2cccc(F)c2c(=O)n1-c1cc(F)cc(F)c1', '=', 1900),
  ('COc1cccc(-n2c([C@H](C)Nc3nc(N)nc(N)c3C#N)nc3cccc(Cl)c3c2=O)c1', '=', 1100),
  ('C[C@H](Nc1nc(N)nc(N)c1C#N)c1nc2cccc(Cl)c2c(=O)n1-c1ccccc1', '=', 2200),
  ('C[C@H](Nc1ncnc(N)c1C#Cc1ccc(F)cn1)c1nc2cccc(Cl)c2c(=O)n1-c1ccccc1', '=', 2600),
  ('C[C@H](Nc1ncnc(N)c1C(N)=O)c1nc2cccc(Cl)c2c(=O)n1-c1ccccc1', '=', 860),
  ('C[C@H](Nc1nc(N)nc(N)c1C#N)c1nc2cccc(Cl)c2c(=O)n1-c1cccc(C(F)F)c1', '=', 1800),
  ('C[C@H](Nc1nc(N)nc(N)c1C#N)c1nc2cccc(Cl)c2c(=O)n1-c1cccc(CC(F)F)c1', '=', 1400),
  ('C[C@H](Nc1nc(N)nc(N)c1C#N)c1nc2cccc(Cl)c2c(=O)n1-c1cc(C#N)cc(C#N)c1', '>', 68),
  ('C[C@H](Nc1ncnc(N)c1C#Cc1cnccn1)c1nc2cccc(Cl)c2c(=O)n1-c1ccccc1', '=', 3200),
  ('C[C@H](Nc1ncnc(N)c1C#Cc1ccccc1)c1nc2cccc(Cl)c2c(=O)n1-c1ccccc1', '=', 1600),
  ('C[C@H](Nc1nc(N)nc(N)c1C#N)c1nc2cccc(Cl)c2c(=O)n1-c1cc(F)cc(F)c1', '=', 2600),
  ('C#Cc1c(N)ncnc1N[C@@H](C)c1nc2cccc(Cl)c2c(=O)n1-c1ccccc1', '=', 9700),
  ('C[C@H](Nc1ncnc(N)c1C#Cc1cccnc1)c1nc2cccc(Cl)c2c(=O)n1-c1ccccc1', '=', 620);

Entry source: ChEMBL document CHEMBL3804828
